- Tested on: Puccinia recondita f. sp. tritici
- Test Method Notes: Test I: wheat leaf rust on wheat seedlings, sprayed the day before inoculation, visual disease rating
- Format: in vivo
- Assay Context: 200 ppm; 100 = 100% disease control, 0 = no control
Listing of recorded Test I disease control rating by entry.
Property: Test I disease control rating (%)

Molecule Smiles | Property | Test Result
Cc1ccc(-n2cnc(Cl)c2-c2c(F)ccc(F)c2Cl)cc1 | Test I disease control rating | 99
Cc1nc(Cl)n(-c2ccc(Cl)c(F)c2)c1-c1c(Cl)cncc1Cl | Test I disease control rating | 100
COc1ccc(F)c(-c2c(Cl)nc(Br)n2-c2cccc(F)c2)c1F | Test I disease control rating | 100
Cc1ccc(-n2c(Cl)nc(Cl)c2-c2c(F)ccc(F)c2Cl)cc1 | Test I disease control rating | 100
Cc1nc(Cl)c(Cc2c(F)cccc2F)n1-c1ccc(Cl)cc1 | Test I disease control rating | 97
Cc1ccc(-n2c(C)nc(Cl)c2-c2c(F)ccc(F)c2F)cc1 | Test I disease control rating | 99
COc1ccc(F)c(-c2c(Cl)nc(C)n2Cc2ccc(Cl)cc2)c1F | Test I disease control rating | 98
Fc1ccc(F)c(-c2c(Cl)nc(Cl)n2-c2ccc(Cl)c(Cl)c2)c1F | Test I disease control rating | 55
Cc1nc(Cl)n(-c2ccc(Cl)c(F)c2)c1-c1ccccn1 | Test I disease control rating | 98
Fc1ccc(-n2cnc(Cl)c2-c2c(F)ccc(F)c2Cl)cc1 | Test I disease control rating | 99
Fc1ccc(-n2cnc(Cl)c2-c2ccc(F)cc2Cl)cc1 | Test I disease control rating | 74
Cc1ccc(-n2c(C)nc(Cl)c2-c2c(F)ccc(F)c2F)cc1C | Test I disease control rating | 96
COc1ccc(Cn2cnc(Cl)c2-c2c(F)cccc2F)cc1 | Test I disease control rating | 100
COc1cc(F)c(-c2c(C)ncn2-c2ccccn2)c(F)c1 | Test I disease control rating | 99
Fc1cccc(F)c1-n1cnc(Br)c1-c1ccc(Cl)cc1 | Test I disease control rating | 0
COc1cc(F)c(-c2c(Cl)nc(C)n2-c2ccc(F)cc2)c(F)c1 | Test I disease control rating | 100
Fc1ccc(-n2c(Br)nc(Cl)c2-c2c(F)cccc2F)cc1F | Test I disease control rating | 88
COc1cc(F)c(-c2c(Cl)nc(Br)n2Cc2ccc(Cl)cc2)c(F)c1 | Test I disease control rating | 93
Cc1nc(Cl)c(-c2c(F)ccc(F)c2Cl)n1-c1ccc(Cl)c(F)c1 | Test I disease control rating | 100
COc1cc(F)c(-c2c(Cl)nc(Br)n2-c2ccc(Cl)cc2)c(Cl)c1 | Test I disease control rating | 98
Cc1ccc(-n2c(Cl)nc(Cl)c2-c2c(F)cc(F)cc2F)cc1 | Test I disease control rating | 86
Cc1ccc(-n2c(Br)nc(Cl)c2-c2ccc(F)cc2Cl)cc1 | Test I disease control rating | 100
COc1cc(F)c(-c2c(Cl)nc(C)n2-c2ccc(C)cc2)c(F)c1 | Test I disease control rating | 100
Cc1nc(Cl)c(-c2c(F)cccc2F)n1-c1ccc(Cl)c(F)c1 | Test I disease control rating | 100
COc1cc(F)c(-c2c(Cl)nc(C)n2Cc2ccc(Cl)cc2)c(F)c1 | Test I disease control rating | 100
COc1cc(F)c(-c2c(C)nc(Cl)n2-c2ccc(Cl)c(F)c2)c(F)c1 | Test I disease control rating | 100
Cc1ccc(-n2c(C)nc(Cl)c2-c2c(F)cc(F)cc2F)cc1 | Test I disease control rating | 100
Fc1ccc(-n2c(Br)nc(Cl)c2-c2c(F)cc(F)cc2F)cc1 | Test I disease control rating | 89
COc1cc(F)c(-c2c(Cl)nc(Cl)n2-c2ccc(Cl)cc2)c(F)c1 | Test I disease control rating | 99
COc1cc(F)c(-c2c(Cl)ncn2Cc2ccc(C)cc2)c(F)c1 | Test I disease control rating | 99
Cc1nc(Cl)c(-c2c(F)cccc2Cl)n1-c1ccc(F)cc1 | Test I disease control rating | 100
Fc1cc(-n2c(Br)nc(Cl)c2-c2c(F)ccc(F)c2Cl)ccc1Cl | Test I disease control rating | 99
Fc1ccc(-n2c(Br)nc(Cl)c2-c2ccc(F)cc2Cl)cc1 | Test I disease control rating | 97
COc1ccc(F)c(-c2c(Cl)nc(Br)n2-c2ccc(C)cc2)c1F | Test I disease control rating | 100
Fc1ccc(-n2c(Cl)nc(Cl)c2-c2c(F)cc(F)cc2F)cc1 | Test I disease control rating | 100
Fc1ccc(-n2c(Cl)nc(Cl)c2-c2c(F)ccc(F)c2Cl)cc1 | Test I disease control rating | 100
Fc1ccc(-n2c(Cl)nc(Cl)c2-c2c(F)cccc2Cl)cc1 | Test I disease control rating | 94
